Answer each item with its documented pIC50.
- System: Radical scavenging activity
- protocol: Antioxidant activity assessed as DPPH radical scavenging activity
- Assay type: functional
- conditionDetails: read-out: IC50
pIC50: −log10 of the molar value.

Per the record, "C=C1[C@@H]2CC[C@H]3[C@]4(C)CCC[C@](C)(CO)[C@@H]4C[C@H](O)[C@]3(C2)[C@@H]1O" has pIC50 of < 3.70

Notebook: "C[C@]1(CO)CCC[C@]2(C)[C@H]1C[C@H](O)[C@@]13C[C@@H](CC[C@@H]21)[C@]1(C)O[C@@H]13" , pIC50 read as < 3.70

Short answer for "CC(=O)OC[C@@]1(C)CCC[C@]2(C)[C@H]1C[C@H](OC(C)=O)[C@@]13C[C@@H](CC[C@@H]21)[C@](C)(O)C3" : pIC50 was < 3.70
